Attribution: the Immune Epitope Database (IEDB)

- tgt: HLA-B*15:01
- protocol description: IEDB peptide-MHC binding, purified MHC/competitive/radioactivity; filed as Kd, often an IC50 or EC50 that approximates it; bounds were set here for any values at or beyond the usual limits of such assays
- measurement conditions: source organism: Dengue virus 4 Dominica/814669/1981
outcome measure: pKd
Remember, pKd is on a log scale: it is -log10 of the molar concentration.

Give HLA-B*15:01 pKd for HTTERGGRAY
6.66

----------
- tgt: HLA-B*15:01
- protocol description: IEDB peptide-MHC binding, purified MHC/competitive/fluorescence; filed as Kd, often an IC50 or EC50 that approximates it; bounds were set here for any values at or beyond the usual limits of such assays
- measurement conditions: source organism: Salmonella enterica subsp. enterica serovar Typhi
outcome measure: Kd (nM)
State the answer as a number, implicitly in nM.

What measured Kd goes with AMAAAGMMY ?
332
